Record form. Attribute: MIC80. Fill in for each entry.
System: Candida albicans
Experiment: Antifungal activity against Candida albicans ATCC SC5314 assessed as fungal growth inhibition in presence of fluconazole by microdilution method
Type: functional
Param answer (str): number followed by unit.

Record summary for `O=C(/C=C/c1cc2ccccc2nc1N1CCCCC1)c1ccc(OC(F)(F)F)cc1` : reported MIC80 = 4.89 µg/mL

// recorded MIC80 for `CN1CCN(c2nc3ccccc3cc2/C=C/C(=O)c2ccc(F)cc2)CC1` : 3.61 µg/mL

Per the records, this molecule ( `O=C(/C=C/c1cc2ccccc2nc1N1CCCCC1)c1ccc(F)cc1` ) has MIC80 equal to 0.96 µg/mL

Value of MIC80 reported for the molecule `CCN(CC)c1nc2ccccc2cc1/C=C/C(=O)c1ccc(OC(F)(F)F)cc1` is 1.85 µg/mL

What the record says about `CCN(CC)c1nc2ccccc2cc1/C=C/C(=O)c1ccc([N+](=O)[O-])cc1` : MIC80 is 3.99 µg/mL

Each recorded value in this set is attributed to ChEMBL document CHEMBL5252624.
